Item-by-item account of inhibition at 0.01 µM
- measured-target: Androgen Receptor (AR) protein (Homo sapiens, UniProt P10275, T878A)
- Construct: endogenous in cells; host or cells: LNCaP
- Sequence (P10275 whole entry T878A): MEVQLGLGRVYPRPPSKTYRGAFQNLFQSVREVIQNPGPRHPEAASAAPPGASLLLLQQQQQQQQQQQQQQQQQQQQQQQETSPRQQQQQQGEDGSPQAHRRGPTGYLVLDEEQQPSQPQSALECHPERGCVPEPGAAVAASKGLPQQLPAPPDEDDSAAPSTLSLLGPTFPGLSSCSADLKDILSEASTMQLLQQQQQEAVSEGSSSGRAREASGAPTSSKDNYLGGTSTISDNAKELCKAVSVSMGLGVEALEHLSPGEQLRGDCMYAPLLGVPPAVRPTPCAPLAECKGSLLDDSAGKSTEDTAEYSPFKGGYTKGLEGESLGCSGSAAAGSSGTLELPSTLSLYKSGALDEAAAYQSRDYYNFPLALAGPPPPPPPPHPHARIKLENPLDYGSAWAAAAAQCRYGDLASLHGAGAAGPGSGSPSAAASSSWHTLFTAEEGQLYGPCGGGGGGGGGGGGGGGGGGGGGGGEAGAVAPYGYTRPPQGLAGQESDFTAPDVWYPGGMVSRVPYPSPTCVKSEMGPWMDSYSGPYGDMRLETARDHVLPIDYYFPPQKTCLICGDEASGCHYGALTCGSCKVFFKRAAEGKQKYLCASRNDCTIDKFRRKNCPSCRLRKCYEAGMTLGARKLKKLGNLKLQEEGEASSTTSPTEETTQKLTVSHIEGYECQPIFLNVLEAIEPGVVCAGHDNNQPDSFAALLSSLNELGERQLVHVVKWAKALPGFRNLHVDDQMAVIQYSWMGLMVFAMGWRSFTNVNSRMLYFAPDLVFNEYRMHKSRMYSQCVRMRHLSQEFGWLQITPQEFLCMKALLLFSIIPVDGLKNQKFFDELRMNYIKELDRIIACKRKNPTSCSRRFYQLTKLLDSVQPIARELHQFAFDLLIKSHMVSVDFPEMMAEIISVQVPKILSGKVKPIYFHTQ
- Sequence (Q96SW2 whole entry partner): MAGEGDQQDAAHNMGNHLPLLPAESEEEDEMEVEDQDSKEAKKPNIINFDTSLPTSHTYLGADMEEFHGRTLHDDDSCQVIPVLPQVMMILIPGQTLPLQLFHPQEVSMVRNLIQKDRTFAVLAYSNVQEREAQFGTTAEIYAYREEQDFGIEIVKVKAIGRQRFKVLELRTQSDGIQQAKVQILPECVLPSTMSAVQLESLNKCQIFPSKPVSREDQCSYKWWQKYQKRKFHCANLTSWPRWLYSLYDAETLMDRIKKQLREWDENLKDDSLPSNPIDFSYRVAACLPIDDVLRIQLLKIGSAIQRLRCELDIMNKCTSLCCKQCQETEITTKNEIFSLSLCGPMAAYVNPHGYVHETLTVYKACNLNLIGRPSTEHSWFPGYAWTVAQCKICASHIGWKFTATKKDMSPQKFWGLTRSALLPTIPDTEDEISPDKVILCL
- assay-text: Androgen Receptor (AR) protein degradation assay in LNCaP cells, western blotting
- Format: cell-based
- test-conditions: 20 h, 0.01 μM compound
recorded-endpoint: inhibition at 0.01 µM (%)

| compound | measured-target | obs-value |
| --- | --- | --- |
| N#Cc1ccc(N2CCC(C(=O)Nc3ccc(N4CC(CN5CCN(CC6CCN(c7ccc8c(c7)C(=O)N(C7CCC(=O)NC7=O)C8=O)CC6)CC5)C4)cn3)CC2)cc1C(F)(F)F (stereo not drawn) [Example 27] | Androgen Receptor (AR) protein (Homo sapiens, UniProt P10275, T878A) | 78 |
| N#Cc1ccc(N2CCC(C(=O)Nc3ccc(CCN4CCC(CN5CCN(c6ccc7c(c6)C(=O)N(C6CCC(=O)NC6=O)C7=O)CC5)CC4)cn3)CC2)cc1C(F)(F)F (stereo not drawn) [Example 165] | Androgen Receptor (AR) protein (Homo sapiens, UniProt P10275, T878A) | 42 |
| C[C@@H]1CN(CC2CCN(c3ccc(C(=O)NC4CCC(=O)NC4=O)nc3)CC2)CCN1CC1CCN(c2ccc(NC(=O)C3CCN(c4ccc(C#N)c(C(F)(F)F)c4)CC3)nc2)CC1 (stereo partly drawn) [Example 108] | Androgen Receptor (AR) protein (Homo sapiens, UniProt P10275, T878A) | 51 |
